Target: angiotensin converting enzyme (ACE, EC 3.4.15.1) (Oryctolagus cuniculus)
Type: biochemical
Settings: peptides
Method: […] The substrate hippuryl histidyl leucine (HHL, Sigma Chemicals Co., St. Louis, Mo., USA) is dissolved in a 0.1 M borate buffer with 0.3 M NaCl pH 8.3 to obtain a final concentration of 5 mM. […] The hippuric acid residue is redissolved in 800 μl of bidistilled water and, following stirring for 20 seconds, the absorbency at 228 nm is measured in a Dur-70 spectrophotometer from Beckman Instruments, Inc., Fullerton, USA. […]
Residues, ends and D or L forms follow the SMILES beside them.
readout-label: ACEI activity in vitro (in words)

1. CC(C)C[C@H](NC(=O)[C@H](Cc1ccccc1)NC(=O)[C@@H]1CCCN1C(=O)[C@H](Cc1c[nH]cn1)NC(=O)[C@H](CC(=O)O)NC(=O)[C@H](C)NC(=O)[C@H](CCCNC(=N)N)NC(=O)[C@@H](N)Cc1ccccc1)C(=O)O [SEQ. ID. N^o 5] (H-FRADHPFL-OH; N-terminus and C-terminus assumed)	potent ACEI activity
2. CC[C@H](C)[C@H](N)C(=O)N[C@H](C(=O)N[C@@H](Cc1ccccc1)C(=O)O)C(C)C	potent ACEI activity
3. CC(C)C[C@H](NC(=O)[C@H](Cc1ccccc1)NC(=O)[C@@H]1CCCN1C(=O)[C@H](Cc1c[nH]cn1)NC(=O)[C@H](CC(=O)O)NC(=O)[C@H](C)NC(=O)[C@@H](N)CCCNC(=N)N)C(=O)O [SEQ. ID. N^o 3, RADHPFL] (H-RADHPFL-OH; N-terminus and C-terminus assumed)	potent ACEI activity
4. CC[C@H](C)[C@H](NC(=O)[C@@H]1CCCN1C(=O)[C@H](Cc1ccc(O)cc1)NC(=O)[C@H](CCCNC(=N)N)NC(=O)[C@H](CCC(=O)O)NC(=O)[C@H](CCC(=O)O)NC(=O)[C@H](C)NC(=O)[C@@H](N)Cc1ccc(O)cc1)C(=O)N[C@@H](CC(C)C)C(=O)O [SEQ. ID. N^o 6] (H-YAEERYPIL-OH; N-terminus and C-terminus assumed)	potent ACEI activity

* * *

Biological target: angiotensin converting enzyme (ACE, EC 3.4.15.1) (Oryctolagus cuniculus, UniProt P12822)
Sequence (P12822 34-1310): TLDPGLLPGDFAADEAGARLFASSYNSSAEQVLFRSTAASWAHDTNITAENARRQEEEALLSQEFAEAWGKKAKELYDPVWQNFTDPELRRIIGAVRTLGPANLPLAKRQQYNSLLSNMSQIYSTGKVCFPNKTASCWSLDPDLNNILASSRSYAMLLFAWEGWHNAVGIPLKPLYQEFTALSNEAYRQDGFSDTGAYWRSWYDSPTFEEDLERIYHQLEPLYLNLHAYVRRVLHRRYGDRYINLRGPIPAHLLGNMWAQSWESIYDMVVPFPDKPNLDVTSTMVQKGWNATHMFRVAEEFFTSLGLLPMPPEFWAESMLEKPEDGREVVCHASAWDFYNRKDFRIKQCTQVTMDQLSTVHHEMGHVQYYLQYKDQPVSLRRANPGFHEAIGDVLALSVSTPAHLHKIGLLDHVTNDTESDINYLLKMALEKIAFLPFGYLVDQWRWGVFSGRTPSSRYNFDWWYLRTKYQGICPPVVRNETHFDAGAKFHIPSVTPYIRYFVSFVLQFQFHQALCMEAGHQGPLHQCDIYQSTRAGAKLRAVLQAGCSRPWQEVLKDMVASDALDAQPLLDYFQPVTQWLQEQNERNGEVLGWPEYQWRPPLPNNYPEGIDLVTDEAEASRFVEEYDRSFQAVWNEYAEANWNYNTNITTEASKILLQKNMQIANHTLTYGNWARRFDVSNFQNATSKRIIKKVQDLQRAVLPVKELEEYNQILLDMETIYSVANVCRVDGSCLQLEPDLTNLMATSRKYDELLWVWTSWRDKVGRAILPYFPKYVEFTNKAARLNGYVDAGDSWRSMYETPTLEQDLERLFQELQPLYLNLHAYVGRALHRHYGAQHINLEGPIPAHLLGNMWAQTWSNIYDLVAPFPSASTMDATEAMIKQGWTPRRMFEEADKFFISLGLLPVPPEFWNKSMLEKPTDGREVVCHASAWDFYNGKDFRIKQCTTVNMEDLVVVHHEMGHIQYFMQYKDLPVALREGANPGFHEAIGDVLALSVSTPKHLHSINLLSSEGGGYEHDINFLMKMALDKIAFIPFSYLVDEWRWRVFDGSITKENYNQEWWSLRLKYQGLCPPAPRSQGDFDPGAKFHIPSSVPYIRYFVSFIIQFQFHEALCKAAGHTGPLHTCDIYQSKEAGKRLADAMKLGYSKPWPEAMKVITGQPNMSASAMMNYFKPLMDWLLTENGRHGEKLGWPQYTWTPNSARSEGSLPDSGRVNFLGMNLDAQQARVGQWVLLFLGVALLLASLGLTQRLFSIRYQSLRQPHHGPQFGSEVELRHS
Residues, ends and D or L forms follow the SMILES beside them.
readout-label: log10(IC50) (log10 of the value in µM)
// stored as log10 of IC50 expressed in µM

Exercise: Quote angiotensin converting enzyme (ACE, EC 3.4.15.1) (Oryctolagus cuniculus, UniProt P12822) log10(IC50) for entry CC[C@H](C)[C@H](NC(=O)[C@H](CC(=O)O)NC(=O)[C@@H](N)CCCNC(=N)N)C(=O)N[C@@H](CC(C)C)C(=O)N[C@@H](CC(N)=O)C(=O)N[C@@H](CCC(N)=O)C(=O)O [SEQ. ID. N^o 7, RDILNQ] (H-RDILNQ-OH) .
Key: 2.64

Exercise: Give log10(IC50); test system angiotensin converting enzyme (ACE, EC 3.4.15.1) (Oryctolagus cuniculus, UniProt P12822); compound CC[C@H](C)[C@H](NC(=O)[C@@H]1CCCN1C(=O)[C@H](Cc1ccc(O)cc1)NC(=O)[C@H](CCCNC(=N)N)NC(=O)[C@H](CCC(=O)O)NC(=O)[C@H](CCC(=O)O)NC(=O)[C@H](C)NC(=O)[C@@H](N)Cc1ccc(O)cc1)C(=O)N[C@@H](CC(C)C)C(=O)O [SEQ. ID. N^o 6] (H-YAEERYPIL-OH; N-terminus and C-terminus assumed)
Key: 0.67

Exercise: Provide log10(IC50), tested on angiotensin converting enzyme (ACE, EC 3.4.15.1) (Oryctolagus cuniculus, UniProt P12822), for CC(C)C[C@H](NC(=O)[C@H](Cc1ccccc1)NC(=O)[C@@H]1CCCN1C(=O)[C@H](Cc1c[nH]cn1)NC(=O)[C@H](CC(=O)O)NC(=O)[C@H](C)NC(=O)[C@H](CCCNC(=N)N)NC(=O)[C@@H](N)Cc1ccccc1)C(=O)O [SEQ. ID. N^o 5] (H-FRADHPFL-OH; N-terminus and C-terminus assumed) .
Key: 0.51

Exercise: For angiotensin converting enzyme (ACE, EC 3.4.15.1) (Oryctolagus cuniculus, UniProt P12822), give the measured log10(IC50) of the entry CC(C)C[C@H](NC(=O)[C@H](Cc1ccccc1)NC(=O)[C@@H]1CCCN1C(=O)[C@H](Cc1c[nH]cn1)NC(=O)[C@H](CC(=O)O)NC(=O)[C@H](C)NC(=O)[C@@H](N)CCCNC(=N)N)C(=O)O [SEQ. ID. N^o 3, RADHPFL] (H-RADHPFL-OH; N-terminus and C-terminus assumed)
Key: 0.79

Exercise: Give log10(IC50); test system angiotensin converting enzyme (ACE, EC 3.4.15.1) (Oryctolagus cuniculus, UniProt P12822); compound CC[C@H](C)[C@H](NC(=O)[C@H](CCC(N)=O)NC(=O)[C@@H](N)Cc1ccc(O)cc1)C(=O)NCC(=O)N[C@@H](CC(C)C)C(=O)O [SEQ. ID. N^o 1, YQIGL] (H-YQIGL-OH; N-terminus and C-terminus assumed)
Key: 2.24

Exercise: Tell me its log10(IC50) on angiotensin converting enzyme (ACE, EC 3.4.15.1) (Oryctolagus cuniculus, UniProt P12822): CSCC[C@H](NC(=O)[C@H](C)NC(=O)[C@H](CC(C)C)NC(=O)[C@H](C)NC(=O)[C@@H](N)CO)C(=O)O [SEQ. ID. N^o 8, SALAM] (H-SALAM-OH)
Key: 2.36
